# EXPERIMENT_NOTES: ESI positive response factor (isotope-corrected peak area per molar concentration) in SFC/ESI/HRMS (area units per M); higher = higher ionization efficiency;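 also: standards in acetonitrile/water run in triplicate on a zwitterionic HILIC column, CO2–methanol gradient containing 20 mmol/L ammonium acetate, postcolumn makeup flow, Orbitrap full-scan detection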
# TEST_SETTINGS: 0.0175 µM
ESI positive response factor values by entry

- COMPOUND: "CCOC(=O)CN1CCCC1=O [Ethyl 2-oxo-1-pyrrolidineacetate]"
  ESI positive response factor: "9.45e+16"
- COMPOUND: "COC(=O)CCCCCCCCC(=O)OC [Dimethylsebacate]"
  ESI positive response factor: "7.67e+16"
- COMPOUND: "CNC(=O)Oc1cccc2c1OC(C)(C)C2"
  ESI positive response factor: "8.85e+16"
- COMPOUND: "CN(C)CCOC(c1ccccc1)c1ccccc1 [Diphenhydramine]"
  ESI positive response factor: "1.59e+17"
- COMPOUND: "CC(=O)OCC[N+](C)(C)C"
  ESI positive response factor: "2.2e+17"
- COMPOUND: "C[N+](C)(C)CC(=O)O"
  ESI positive response factor: "1.5e+17"
- COMPOUND: "COCC(=O)N(c1c(C)cccc1C)N1CCOC1=O"
  ESI positive response factor: "1.33e+17"
- COMPOUND: "CN1C(C)(C)CC(O)CC1(C)C"
  ESI positive response factor: "4.91e+17"
- COMPOUND: "CCC[C@@H]1O[C@@H]2C[C@H]3[C@@H]4CCC5=CC(=O)C=C[C@]5(C)[C@H]4[C@@H](O)C[C@]3(C)[C@]2(C(=O)CO)O1"
  ESI positive response factor: "1.27e+17"
- COMPOUND: "CC(=O)Nc1ccc(O)cc1"
  ESI positive response factor: "3.61e+16"
